test: small molecules captured by biotinylated probe aFST – biochemical, small-molecule microarray, fluorescence 635/667, stem cell growth factor project, primary screen (AID 1086); conditions: higher = more signal;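 further: score merges 667 nm fluorescence with signal-to-noise of each printed compound spot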
Readout kind: composite z-score
Reply: number alone, nothing else.

Qu. Dear colleague, I am looking for the recorded composite z-score of the following compound: O=C(NC1CC1)[C@@H]1c2ccccc2C(=O)N(CC23CC4CC(CC(C4)C2)C3)[C@H]1c1ccc(CO)cc1
Ans. 0.556

Qu. Given the entry [N-]=[N+]=Nc1ccccc1[C@@H]1OC(c2ccc(OCCCO)cc2)=N[C@]1(Cc1ccccc1)C(=O)NCCN1CCOCC1 , report its measured composite z-score.
Ans. 1.26

Qu. May I ask what composite z-score has been recorded for C=CCNC(=O)[C@H]1[C@@H]2C(=O)O[C@@H](c3ccccc3)[C@@H](c3ccccc3)N2[C@@H](c2ccc(OCCO)cc2)[C@]12C(=O)Nc1ccccc12 ?
Ans. -0.189

Qu. Item under review: CN(C)CCCCNC(=O)[C@H]1C[C@H]2C(=O)N3CCC[C@H]3C(=O)N2[C@H]1c1cccc(OCCO)c1 . Reported composite z-score?
Ans. 0.081

Qu. Would you kindly share the measured composite z-score for C=C(C)[C@@H]1CC=C(C(O)C2C=CC3C(=O)N(c4ccccc4)C(=O)C3N2Nc2ccc([N+](=O)[O-])cc2)CC1 (some centres not stated) ?
Ans. 1.57

Qu. For COc1ccc(C(=O)Nc2ccc3c(c2)[C@@]2(O[C@H](CCO)[C@@H]([Si](C)(C)c4ccc(OC)cc4)[C@@H]2C)C(=O)N3Cc2ccccc2)cc1 , what is its reported composite z-score?
Ans. 0.154

Qu. State the recorded composite z-score for this entry: COc1ccc([Si](C)(C)[C@@H]2[C@@H](CC(=O)N3CCC[C@H]3CO)O[C@]3(C(=O)N(Cc4cccc(N5CCCCC5=O)c4)c4ccccc43)[C@H]2C)cc1
Ans. -0.015

Qu. Field request: composite z-score | item: COc1ccc([Si](C)(C)[C@H]2[C@H](CCO)O[C@@]3(C(=O)N(Cc4cccc(N(C=O)c5ccccc5)c4)c4ccccc43)[C@@H]2C)cc1
Ans. 0.638

Qu. Could you tell me which composite z-score is on file for CC(C)N1C(=O)C[C@@](C(=O)NCCN2CCOCC2)(c2ccc([N+](=O)[O-])cc2)[C@H]1c1ccc(CO)cc1 ?
Ans. -1.1

Qu. Report composite z-score for NCCCCCCNC(=O)[C@@H]1C[C@@H]2C(=O)N3CCC[C@H]3C(=O)N2[C@@H]1c1cccc(OCCO)c1 please.
Ans. 0.492

Qu. Give its composite z-score value. Item: O=C1N(Cc2ccccc2)c2ccccc2C[C@@]12COC(c1ccc(OCCCO)cc1)=N2
Ans. 0.361

Qu. Find the recorded composite z-score belonging to C=CCNC(=O)[C@H]1[C@@H]2C(=O)O[C@@H](c3ccccc3)[C@@H](c3ccccc3)N2[C@@H](c2ccccc2OCCO)[C@]12C(=O)N(C(=O)OCCOC)c1ccc(C#Cc3ccc(OC)cc3)cc12 and report it.
Ans. 0.101
